- assayed_target: coagulation factor IXa (FIXa) (UniProt P00740;P00740 P00740:47-191,P00740:227-461)
- Sequence (P00740 47-191, chain 1 of 2): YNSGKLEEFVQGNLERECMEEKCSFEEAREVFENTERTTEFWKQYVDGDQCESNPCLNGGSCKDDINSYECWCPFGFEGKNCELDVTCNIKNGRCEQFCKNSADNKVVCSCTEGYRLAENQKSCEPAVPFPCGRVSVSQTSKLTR
- Sequence (P00740 227-461, chain 2 of 2): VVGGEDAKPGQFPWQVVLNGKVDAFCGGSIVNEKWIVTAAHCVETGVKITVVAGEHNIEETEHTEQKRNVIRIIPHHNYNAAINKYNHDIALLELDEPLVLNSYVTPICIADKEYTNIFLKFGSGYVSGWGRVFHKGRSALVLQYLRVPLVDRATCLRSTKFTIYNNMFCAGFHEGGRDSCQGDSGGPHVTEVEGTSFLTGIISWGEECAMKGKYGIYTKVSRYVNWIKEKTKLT
- assay_info: ±0.05; p287 gives about 1 to 3 nM
- measurement_setup: stem-loop
endpoint_name: pKd
Note: pKd values are expressed as the negative base-10 logarithm of concentration in M.

Exercise: Return the recorded pKd value; entry: AUGGGGACUAUACCGCGUAAUGCUGCCUCCCCAU (ssRNA) [9.3t]
Key: 9.24
